# measured target: T1, GST-SH3 domain (derived from BIN1) (human)
# T1 sequence (O00499 whole entry, looked up): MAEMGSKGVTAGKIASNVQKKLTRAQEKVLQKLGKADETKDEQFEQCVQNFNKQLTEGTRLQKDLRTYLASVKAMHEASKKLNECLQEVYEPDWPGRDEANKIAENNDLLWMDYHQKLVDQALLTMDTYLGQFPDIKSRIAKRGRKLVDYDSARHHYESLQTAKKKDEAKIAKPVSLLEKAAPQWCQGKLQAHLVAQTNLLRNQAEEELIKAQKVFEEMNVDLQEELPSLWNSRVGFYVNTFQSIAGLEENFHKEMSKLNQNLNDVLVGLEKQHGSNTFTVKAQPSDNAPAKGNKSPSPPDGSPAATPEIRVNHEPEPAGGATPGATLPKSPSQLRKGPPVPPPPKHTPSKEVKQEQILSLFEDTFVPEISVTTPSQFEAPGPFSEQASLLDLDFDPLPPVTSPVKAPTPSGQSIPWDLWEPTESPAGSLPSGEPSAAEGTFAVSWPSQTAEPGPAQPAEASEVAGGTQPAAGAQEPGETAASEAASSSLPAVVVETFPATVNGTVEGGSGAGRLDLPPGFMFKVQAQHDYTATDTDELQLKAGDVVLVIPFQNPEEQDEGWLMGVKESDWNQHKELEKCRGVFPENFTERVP
# experiment notes: ITC
recorded metric: Kd (µM)
One number for each entry, in µM.

Enquiry: Find the recorded Kd belonging to RKKSKLFSRLRRKKN [exon10 peptide] and report it.
Return: 11.3
